Target: hGIPR (Homo sapiens)
Construct: expressed in transfected cells; host or cells: CHO cells carrying a CRE-luciferase reporter gene
Sequence (P48546 22-466): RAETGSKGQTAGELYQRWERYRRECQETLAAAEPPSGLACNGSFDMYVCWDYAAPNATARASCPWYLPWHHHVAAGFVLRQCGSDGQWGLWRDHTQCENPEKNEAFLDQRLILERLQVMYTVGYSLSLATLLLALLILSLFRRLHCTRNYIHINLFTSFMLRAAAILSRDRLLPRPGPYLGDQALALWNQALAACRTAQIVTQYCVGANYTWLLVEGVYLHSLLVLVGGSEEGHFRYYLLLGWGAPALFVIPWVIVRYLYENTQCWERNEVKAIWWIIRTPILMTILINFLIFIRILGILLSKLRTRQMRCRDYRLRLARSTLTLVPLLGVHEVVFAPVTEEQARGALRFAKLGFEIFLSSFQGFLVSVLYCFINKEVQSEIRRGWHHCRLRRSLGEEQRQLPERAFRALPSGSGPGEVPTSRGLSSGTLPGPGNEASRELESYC
Experiment: hGIPR CreLuc reporter gene assay in 0.5% and 100% plasma
Format: cell-based
Settings: CreLuc reporter gene assay, 100% human plasma; read-out: hGIPR 100% hP
Starred links: 1 amine or outer side, 2 acyl side, 3 side chain; linkers in the order of their positions; H or OH if unused. Positions of bridges follow the written chain, without caps; N, C: chain ends. Non-standard residues stand in square brackets, D forms with d. Groups on a side chain read outwards from the residue. Chains are numbered I, II in the order given. No end group written: not given here. *: point of attachment. C20 diacid = O=C(O)CCCCCCCCCCCCCCCCCCC(=O)*; C18 diacid = O=C(O)CCCCCCCCCCCCCCCCC(=O)*; γGlu = O=C(O)[C@H](CCC(=O)[*:2])N[*:1]; εLys = N[C@@H](CCCCN[*:1])C(=O)[*:2]; AEEA = NCCOCCOCC(=O)O; Aib = CC(C)(N)C(=O)O
measured-endpoint: EC50 (nM)
The response must be a number in nM with no trailing unit.

// worked examples, EC50 included
substance="H-Y[Aib]EGTFTSDYSI[Aib]LEKQAQ[Aib]EFVQWLIK([εLys-γGlu-γGlu-γGlu-γGlu-γGlu-C18 diacid])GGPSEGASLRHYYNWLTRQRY-NH2 [Compound 154]" measured=1.07
substance="I: Y[Aib]EGTFTSDYSI[Aib]LEKQAQ[Aib]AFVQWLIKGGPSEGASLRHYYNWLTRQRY-NH2 / II: {C20 diacid}-EEEEE[εLys] (amide I:28-II:C) [Compound 240]" measured=1.97
substance="H-Y[Aib]EGTFTSDYSI[Aib]LEKQAQ[Aib]AFVEWLIK([εLys-γGlu-γGlu-γGlu-γGlu-γGlu-γGlu-C20 diacid])GGPSSGISLRHYYNWLTRQRY-NH2 [Compound 94]" measured=1.04
substance="H-Y[Aib]EGTFTSDYSI[Aib]LEKQAQ[Aib]AFVEWLIK([εLys-γGlu-γGlu-γGlu-γGlu-γGlu-γGlu-C20 diacid])GGPSSYVSIRHYYNWLTRQRY-NH2 [Compound 9]" measured=2.03
substance="H-Y[Aib]EGTFTSDYSI[Aib]LEKQAQ[Aib]AFVEWLIK([εLys-γGlu-γGlu-γGlu-γGlu-γGlu-γGlu-C20 diacid])GGPSYGASLRHYYNWLTRQRY-NH2 [Compound 232]" measured=1.64

Input: Name the recorded EC50 for Y[Aib]EGTFTSDYSI[Aib]LEKQAQ[Aib]AFVEWLIK([εLys-γGlu-γGlu-γGlu-γGlu-γGlu-C18 diacid])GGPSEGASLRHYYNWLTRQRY-NH2 [Compound 295] .
Output: 0.98

Input: Name the recorded EC50 for H-Y[Aib]EGTFTSDYSI[Aib]LEKQAQ[Aib]AFVQWLIK([AEEA-AEEA-γGlu-γGlu-γGlu-γGlu-C20 diacid])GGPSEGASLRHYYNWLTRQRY-NH2 [Compound 269] .
Output: 1.23

Input: Name the recorded EC50 for H-Y[Aib]EGTFTSDYSI[Aib]LEEQAQ[Aib]AFVEWLIK([εLys-γGlu-γGlu-γGlu-γGlu-γGlu-C20 diacid])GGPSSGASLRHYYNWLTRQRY-NH2 [Compound 181] .
Output: 1.23

Input: Name the recorded EC50 for H-Y[Aib]EGTFTSDYSI[Aib]LEKQAQ[Aib]EFVQWLIK([AEEA-AEEA-Glu-Glu-Glu-C18 diacid])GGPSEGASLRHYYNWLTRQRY-NH2 [Compound 157] .
Output: 1.58

Input: Name the recorded EC50 for H-Y[Aib]EGTFTSDYSI[Aib]LEKQAQ[Aib]AFIEWLIK([γGlu-γGlu-γGlu-γGlu-C20 diacid])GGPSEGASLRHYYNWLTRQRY-NH2 [Compound 283] .
Output: 1.86
